- Tested system: Voltage-gated potassium channel subunit beta-2 (Rattus norvegicus)
- Assay notes: enhancers of rat Kvbeta2 NADPH turnover – biochemical, NADPH fluorescence, primary screen (AID 623);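 further: fluorescence intensity change per second fitted from 20 to 320 s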
- Reported conditions: Recombinant KvBeta, NADPH fluorescence decrease slope, 10 min; at 10 µM; hits give low values
Reported property: NADPH fluorescence slope
Numbers only.

* COc1cc(C(=O)Nc2cc(Cl)ccc2C)c(-n2cnnn2)cc1OC | 0.00014

Batch of 5 compounds: report NADPH fluorescence slope for each.
1. Cc1ccc(Cn2nnc3c(=O)[nH]c(C4CCN(C(=O)c5cccs5)CC4)nc32)cc1
2. O=C(COC(=O)c1cc(S(=O)(=O)N2CCOCC2)ccc1O)NCC1CCCO1 (stereo not drawn)
3. O=C1CN(c2ccccc2F)C(=O)CN1c1ccccc1F
4. CCOC(=O)c1c(NC(=O)CSc2nnc(-c3ccc(OC)cc3)o2)sc2c1CCC2
5. O=C(CCCN1CCC(O)(c2ccc(Cl)cc2)CC1)c1ccc(F)cc1

*A*
1: 1.3e-05; 2: 5.4e-05; 3: -3.1e-05; 4: -9.6e-07; 5: -4.2e-05

Batch of 4 compounds: report NADPH fluorescence slope for each.
1. CC(C)(C)OC(=O)N1CC(O)CC1C(=O)OCC(=O)c1ccc(Cl)cc1 (stereo not drawn)
2. COc1ccc2oc(C)c(C(=O)Cn3ccnc3)c2c1
3. CC(=O)[C@H]1CC[C@H]2[C@@H]3CCC4=CC(=O)CC[C@]4(C)[C@H]3CC[C@]12C
4. C=CCN1C(=O)/C(=C2/Sc3ccccc3N2C)SC1=Nc1c(C)n[nH]c1C

*A*
1: -6e-05; 2: -1.5e-05; 3: -4.8e-05; 4: -2.3e-05

Batch of 3 compounds: report NADPH fluorescence slope for each.
1. CCn1cc(C(=O)NCCN(C)CCc2ccccc2)c(=O)c2cc(S(=O)(=O)N(C)C)ccc21
2. CCOc1ccc(-n2c(=O)cc(N3CCN(c4ccccc4)CC3)[nH]c2=O)cc1
3. Cc1cccc(-n2ccnc2SCC(=O)Nc2cc(C)on2)c1

*A*
1: 0.0002; 2: -1.6e-05; 3: 3.9e-06

Batch of 3 compounds: report NADPH fluorescence slope for each.
1. CCOC(=O)c1cc(-c2ccc(Cl)s2)nc2c1c(C)nn2C
2. N#CC(C(=O)C1CCCCC1)c1nc2ccccc2[nH]1 (stereo not drawn)
3. CC1(C)CC(=O)C2=C(C1)N(Cc1ccco1)C(=O)C2(NC(=O)C1CCCCC1)C(F)(F)F (stereo not drawn)

*A*
-1.5e-05
3e-06
-6.1e-05
